- Assay system: Phosphatidylinositol 4,5-bisphosphate 3-kinase catalytic subunit beta isoform (Homo sapiens, UniProt P42338)
- Sequence (P42338 whole entry, canonical isoform): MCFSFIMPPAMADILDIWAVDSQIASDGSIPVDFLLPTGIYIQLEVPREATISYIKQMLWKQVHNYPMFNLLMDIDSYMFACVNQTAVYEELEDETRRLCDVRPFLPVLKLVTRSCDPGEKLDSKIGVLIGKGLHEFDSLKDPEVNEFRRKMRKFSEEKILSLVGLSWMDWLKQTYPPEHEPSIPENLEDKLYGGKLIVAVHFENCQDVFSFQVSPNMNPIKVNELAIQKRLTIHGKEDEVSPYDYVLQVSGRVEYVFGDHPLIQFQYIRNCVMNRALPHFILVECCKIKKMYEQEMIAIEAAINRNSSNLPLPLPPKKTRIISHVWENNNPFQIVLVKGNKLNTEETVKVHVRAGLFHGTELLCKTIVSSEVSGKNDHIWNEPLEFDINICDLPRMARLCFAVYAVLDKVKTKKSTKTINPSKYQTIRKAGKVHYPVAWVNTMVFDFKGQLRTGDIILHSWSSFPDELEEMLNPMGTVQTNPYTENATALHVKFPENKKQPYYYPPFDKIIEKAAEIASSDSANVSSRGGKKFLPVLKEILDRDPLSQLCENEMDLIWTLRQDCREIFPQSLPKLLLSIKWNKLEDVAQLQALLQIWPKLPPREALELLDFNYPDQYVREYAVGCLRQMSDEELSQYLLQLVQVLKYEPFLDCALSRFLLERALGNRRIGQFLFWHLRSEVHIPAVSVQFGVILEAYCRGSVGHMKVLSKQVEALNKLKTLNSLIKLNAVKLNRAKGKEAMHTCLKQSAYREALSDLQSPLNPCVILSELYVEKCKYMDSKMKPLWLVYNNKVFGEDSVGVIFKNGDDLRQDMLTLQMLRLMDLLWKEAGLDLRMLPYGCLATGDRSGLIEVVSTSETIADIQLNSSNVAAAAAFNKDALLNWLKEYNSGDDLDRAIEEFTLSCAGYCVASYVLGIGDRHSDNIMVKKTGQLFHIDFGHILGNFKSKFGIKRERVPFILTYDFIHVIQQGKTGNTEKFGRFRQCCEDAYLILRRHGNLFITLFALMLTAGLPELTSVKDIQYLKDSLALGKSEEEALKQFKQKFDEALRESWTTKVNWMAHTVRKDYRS
- Assay procedure: Inhibition of recombinant PI3K p110beta using L-alpha-phosphatidylinositol as substrate and [gamma33P]ATP after 60 mins by thin layer chromatographic technique
Observed property: IC50

Given smiles: CCC/C(=N\NS(=O)(=O)c1cc([N+](=O)[O-])ccc1C)c1cnn2ccc(C#N)cc12
Reported: > 1000 nM
//
Given smiles: CCC/C(=N\N(C)S(=O)(=O)c1cc([N+](=O)[O-])ccc1C)c1cnn2ccc(C#N)cc12
Reported: > 1000 nM
//
Given smiles: Cc1ccc([N+](=O)[O-])cc1S(=O)(=O)N(C)/N=C/c1cnn2ccc(C(=O)N(C)C)cc12
Reported: > 1000 nM
//
Given smiles: Cc1ccc([N+](=O)[O-])cc1S(=O)(=O)N(C)/N=C/c1cnn2ccc(-c3ccccc3)cc12
Reported: > 1000 nM
//
Given smiles: Cc1ccc([N+](=O)[O-])cc1S(=O)(=O)N(C)/N=C/c1cnn2cc(Br)ccc12
Reported: > 1000 nM
//
Given smiles: Cc1ccn2ncc(/C=N/N(C)S(=O)(=O)c3cc([N+](=O)[O-])ccc3C)c2c1
Reported: > 1000 nM
//
Given smiles: Cc1ccc([N+](=O)[O-])cc1S(=O)(=O)N(C)/N=C/c1cnn2cccc(Br)c12
Reported: > 1000 nM
//
Given smiles: Cc1ccc([N+](=O)[O-])cc1S(=O)(=O)N(C)/N=C/c1cnn2ccc(I)cc12
Reported: 370 nM
//
Given smiles: C/C(=N\NS(=O)(=O)c1cc([N+](=O)[O-])ccc1C)c1cnn2ccc(C#N)cc12
Reported: 410 nM
//
Given smiles: Cc1ccc([N+](=O)[O-])cc1S(=O)(=O)N/N=C/c1cnn2ccc(C#N)cc12
Reported: 620 nM
//
Given smiles: Cc1ccc([N+](=O)[O-])cc1S(=O)(=O)N(C)/N=C/c1cnn2ccc(C#N)cc12
Reported: 46 nM
//
Given smiles: C/C(=N\N(C)S(=O)(=O)c1cc([N+](=O)[O-])ccc1C)c1cnn2ccc(C#N)cc12
Reported: 600 nM
//
Given smiles: Cc1ccc([N+](=O)[O-])cc1S(=O)(=O)N(C)/N=C/c1cnn2cccc(C)c12
Reported: > 1000 nM
//
Given smiles: C=Cc1ccn2ncc(/C=N/N(C)S(=O)(=O)c3cc([N+](=O)[O-])ccc3C)c2c1
Reported: > 1000 nM
//
Given smiles: Cc1ccc([N+](=O)[O-])cc1S(=O)(=O)N(C)/N=C/c1cnn2ccc(Cl)cc12
Reported: 390 nM
//
Given smiles: C/C(=N\N(C)S(=O)(=O)c1cc([N+](=O)[O-])ccc1C)c1cnn2ccc(Br)cc12
Reported: > 1000 nM

* * *

- Assay system: Phosphatidylinositol 4,5-bisphosphate 3-kinase catalytic subunit delta isoform (Homo sapiens)
- Sequence (O00329 whole entry, canonical isoform): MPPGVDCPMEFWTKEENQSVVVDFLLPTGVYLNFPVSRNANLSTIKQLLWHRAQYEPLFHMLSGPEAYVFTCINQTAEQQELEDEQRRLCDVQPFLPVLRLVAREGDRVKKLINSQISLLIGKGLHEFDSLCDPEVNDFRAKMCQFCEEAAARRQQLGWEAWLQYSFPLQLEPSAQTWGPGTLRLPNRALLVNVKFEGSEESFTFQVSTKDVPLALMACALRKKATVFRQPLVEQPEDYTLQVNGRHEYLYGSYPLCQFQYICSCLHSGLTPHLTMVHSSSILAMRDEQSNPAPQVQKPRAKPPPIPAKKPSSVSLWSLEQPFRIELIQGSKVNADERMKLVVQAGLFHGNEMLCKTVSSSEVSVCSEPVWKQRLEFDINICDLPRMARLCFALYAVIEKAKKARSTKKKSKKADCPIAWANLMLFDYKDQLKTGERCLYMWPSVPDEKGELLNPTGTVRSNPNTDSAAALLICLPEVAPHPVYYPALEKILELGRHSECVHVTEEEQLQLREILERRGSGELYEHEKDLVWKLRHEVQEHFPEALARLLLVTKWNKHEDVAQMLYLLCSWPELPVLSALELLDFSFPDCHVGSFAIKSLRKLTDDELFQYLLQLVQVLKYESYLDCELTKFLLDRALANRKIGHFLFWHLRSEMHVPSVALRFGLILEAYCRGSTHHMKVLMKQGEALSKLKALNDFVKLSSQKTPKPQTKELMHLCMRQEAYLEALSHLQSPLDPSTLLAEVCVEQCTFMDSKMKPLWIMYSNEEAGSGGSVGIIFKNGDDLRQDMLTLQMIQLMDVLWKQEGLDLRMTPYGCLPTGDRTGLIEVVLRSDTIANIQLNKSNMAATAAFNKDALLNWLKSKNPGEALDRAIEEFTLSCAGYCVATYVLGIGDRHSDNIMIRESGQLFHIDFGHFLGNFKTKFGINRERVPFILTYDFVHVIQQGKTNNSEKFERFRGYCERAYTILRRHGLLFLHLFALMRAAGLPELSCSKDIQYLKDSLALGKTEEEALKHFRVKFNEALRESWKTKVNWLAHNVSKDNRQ
- Assay procedure: Inhibition of recombinant PI3K p110delta using L-alpha-phosphatidylinositol as substrate and [gamma33P]ATP after 60 mins by thin layer chromatographic technique
pIC50: −log10 of the molar value.

Given smiles: CCc1ccn2ncc(/C=N/N(C)S(=O)(=O)c3cc([N+](=O)[O-])ccc3C)c2c1
Prefix operator: <
pIC50: 6.00
//
Given smiles: C/C(=N\NS(=O)(=O)c1cc([N+](=O)[O-])ccc1C)c1cnn2ccc(C#N)cc12
Prefix operator: =
pIC50: 6.05
//
Given smiles: Cc1ccc([N+](=O)[O-])cc1S(=O)(=O)N(C)/N=C/c1cnn2ccc(C(N)=O)cc12
Prefix operator: <
pIC50: 6.00
//
Given smiles: Cc1ccn2ncc(/C=N/N(C)S(=O)(=O)c3cc([N+](=O)[O-])ccc3C)c2c1
Prefix operator: =
pIC50: 6.15
//
Given smiles: Cc1ccc([N+](=O)[O-])cc1S(=O)(=O)N/N=C/c1cnn2ccc(C#N)cc12
Prefix operator: =
pIC50: 6.24
//
Given smiles: Cc1ccc([N+](=O)[O-])cc1S(=O)(=O)N(C)/N=C/c1cnn2ccc(Cl)cc12
Prefix operator: =
pIC50: 7.05
//
Given smiles: Cc1ccc([N+](=O)[O-])cc1S(=O)(=O)N(C)/N=C/c1cnn2cccc(C)c12
Prefix operator: <
pIC50: 6.00
//
Given smiles: CC/C(=N\NS(=O)(=O)c1cc([N+](=O)[O-])ccc1C)c1cnn2ccc(C#N)cc12
Prefix operator: =
pIC50: 6.36
//
Given smiles: Cc1ccc([N+](=O)[O-])cc1S(=O)(=O)N(C)/N=C/c1cnn2ccc(O)cc12
Prefix operator: <
pIC50: 6.00
//
Given smiles: COC(=O)c1ccn2ncc(/C=N/N(C)S(=O)(=O)c3cc([N+](=O)[O-])ccc3C)c2c1
Prefix operator: =
pIC50: 6.16
//
Given smiles: C/C(=N\N(C)S(=O)(=O)c1cc([N+](=O)[O-])ccc1C)c1cnn2ccc(Br)cc12
Prefix operator: <
pIC50: 6.00
//
Given smiles: Cc1ccc([N+](=O)[O-])cc1S(=O)(=O)N(C)/N=C/c1cnn2c(C)cccc12
Prefix operator: <
pIC50: 6.00
//
Given smiles: Cc1ccc([N+](=O)[O-])cc1S(=O)(=O)N(C)/N=C/c1cnn2ccc(C3CC3)cc12
Prefix operator: <
pIC50: 6.00
//
Given smiles: CCC/C(=N\N(C)S(=O)(=O)c1cc([N+](=O)[O-])ccc1C)c1cnn2ccc(C#N)cc12
Prefix operator: <
pIC50: 6.00
//
Given smiles: Cc1ccc([N+](=O)[O-])cc1S(=O)(=O)N(C)/N=C/c1cnn2ccccc12
Prefix operator: =
pIC50: 5.47
//
Given smiles: Cc1ccc([N+](=O)[O-])cc1S(=O)(=O)N(C)/N=C/c1cnn2cccc(Br)c12
Prefix operator: <
pIC50: 6.00
//
Given smiles: Cc1ccc([N+](=O)[O-])cc1S(=O)(=O)N(C)/N=C/c1cnn2ccc(C#N)cc12
Prefix operator: =
pIC50: 7.31
//
Given smiles: COc1ccn2ncc(/C=N/N(C)S(=O)(=O)c3cc([N+](=O)[O-])ccc3C)c2c1
Prefix operator: <
pIC50: 6.00

* * *

- Assay system: Phosphatidylinositol 4,5-bisphosphate 3-kinase catalytic subunit alpha isoform (Homo sapiens)
- Assay procedure: Inhibition of recombinant PI3K p110alpha using L-alpha-phosphatidylinositol as substrate and [gamma33P]ATP after 60 mins by thin layer chromatographic technique
Each item that follows carries a reported IC50.

Given smiles: CNC(=O)c1ccn2ncc(/C=N/N(C)S(=O)(=O)c3cc([N+](=O)[O-])ccc3C)c2c1
Unit annotation: nM
Prefix operator: >
IC50: 1000
--
Given smiles: Cc1ccc([N+](=O)[O-])cc1S(=O)(=O)N(C)/N=C/c1cnn2ccc(C(N)=O)cc12
Unit annotation: nM
Prefix operator: =
IC50: 530
--
Given smiles: Cc1ccn2ncc(/C=N/N(C)S(=O)(=O)c3cc([N+](=O)[O-])ccc3C)c2c1
Unit annotation: nM
Prefix operator: =
IC50: 110
--
Given smiles: CCC/C(=N\N(C)S(=O)(=O)c1cc([N+](=O)[O-])ccc1C)c1cnn2ccc(C#N)cc12
Unit annotation: nM
Prefix operator: =
IC50: 610
--
Given smiles: Cc1ccc2c(/C=N/N(C)S(=O)(=O)c3cc([N+](=O)[O-])ccc3C)cnn2c1
Unit annotation: nM
Prefix operator: >
IC50: 1000
--
Given smiles: Cc1ccc([N+](=O)[O-])cc1S(=O)(=O)N(C)/N=C/c1cnn2cc(Br)ccc12
Unit annotation: nM
Prefix operator: >
IC50: 1000
--
Given smiles: Cc1ccc([N+](=O)[O-])cc1S(=O)(=O)N(C)/N=C/c1cnn2cccc(C)c12
Unit annotation: nM
Prefix operator: >
IC50: 1000
--
Given smiles: Cc1ccc([N+](=O)[O-])cc1S(=O)(=O)N(C)/N=C/c1cnn2ccc(O)cc12
Unit annotation: nM
Prefix operator: =
IC50: 340
--
Given smiles: CC(=O)Oc1ccn2ncc(/C=N/N(C)S(=O)(=O)c3cc([N+](=O)[O-])ccc3C)c2c1
Unit annotation: nM
Prefix operator: =
IC50: 910

* * *

- Assay system: Phosphatidylinositol 4,5-bisphosphate 3-kinase catalytic subunit alpha isoform (Homo sapiens, UniProt P42336)
- Sequence (P42336 whole entry, canonical isoform): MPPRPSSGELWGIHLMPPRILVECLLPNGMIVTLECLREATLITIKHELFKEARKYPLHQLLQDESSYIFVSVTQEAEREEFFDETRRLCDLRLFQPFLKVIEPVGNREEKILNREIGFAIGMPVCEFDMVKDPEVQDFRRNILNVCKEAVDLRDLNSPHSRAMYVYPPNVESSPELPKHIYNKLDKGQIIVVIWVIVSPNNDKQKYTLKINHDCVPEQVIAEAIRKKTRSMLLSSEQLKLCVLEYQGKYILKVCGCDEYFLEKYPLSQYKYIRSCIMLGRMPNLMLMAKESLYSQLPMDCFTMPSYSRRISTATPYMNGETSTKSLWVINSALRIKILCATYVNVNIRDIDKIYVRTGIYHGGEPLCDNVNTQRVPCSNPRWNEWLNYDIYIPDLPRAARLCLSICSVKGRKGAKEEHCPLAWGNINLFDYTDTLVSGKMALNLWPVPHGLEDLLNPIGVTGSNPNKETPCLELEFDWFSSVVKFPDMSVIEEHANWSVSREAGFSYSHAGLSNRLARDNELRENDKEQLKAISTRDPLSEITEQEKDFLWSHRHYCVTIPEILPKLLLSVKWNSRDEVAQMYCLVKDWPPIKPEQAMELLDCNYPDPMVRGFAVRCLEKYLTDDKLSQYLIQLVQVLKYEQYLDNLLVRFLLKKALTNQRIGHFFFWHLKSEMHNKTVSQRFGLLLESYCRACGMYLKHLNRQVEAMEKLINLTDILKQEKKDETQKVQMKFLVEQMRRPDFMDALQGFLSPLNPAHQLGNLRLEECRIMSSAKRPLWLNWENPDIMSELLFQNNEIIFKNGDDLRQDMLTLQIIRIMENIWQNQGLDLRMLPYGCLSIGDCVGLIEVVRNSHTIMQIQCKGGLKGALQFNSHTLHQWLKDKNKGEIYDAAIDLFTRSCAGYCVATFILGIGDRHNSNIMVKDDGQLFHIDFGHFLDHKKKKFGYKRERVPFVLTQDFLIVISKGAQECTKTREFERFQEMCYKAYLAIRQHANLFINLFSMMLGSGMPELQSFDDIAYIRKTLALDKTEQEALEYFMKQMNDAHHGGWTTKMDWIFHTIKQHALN
- Assay procedure: Inhibition of recombinant PI3K p110alpha using L-alpha-phosphatidylinositol as substrate and [gamma33P]ATP after 60 mins by thin layer chromatographic technique
Threshold 200 nM. IC50 below it: t. IC50 at it or above: f.

Given smiles: Cc1ccc([N+](=O)[O-])cc1S(=O)(=O)N(C)/N=C/c1cnn2ccc(-c3ccccc3)cc12
Qualitative label: f
//
Given smiles: C#Cc1ccn2ncc(/C=N/N(C)S(=O)(=O)c3cc([N+](=O)[O-])ccc3C)c2c1
Qualitative label: t
//
Given smiles: Cc1ccc([N+](=O)[O-])cc1S(=O)(=O)N(C)/N=C/c1cnn2c(C)cccc12
Qualitative label: f
//
Given smiles: COC(=O)c1ccn2ncc(/C=N/N(C)S(=O)(=O)c3cc([N+](=O)[O-])ccc3C)c2c1
Qualitative label: f
//
Given smiles: COc1ccn2ncc(/C=N/N(C)S(=O)(=O)c3cc([N+](=O)[O-])ccc3C)c2c1
Qualitative label: t
//
Given smiles: C/C(=N\NS(=O)(=O)c1cc([N+](=O)[O-])ccc1C)c1cnn2ccc(C#N)cc12
Qualitative label: t
//
Given smiles: CC/C(=N\NS(=O)(=O)c1cc([N+](=O)[O-])ccc1C)c1cnn2ccc(C#N)cc12
Qualitative label: t
//
Given smiles: Cc1ccc([N+](=O)[O-])cc1S(=O)(=O)N(C)/N=C/c1cnn2ccc(I)cc12
Qualitative label: t
//
Given smiles: Cc1ccc([N+](=O)[O-])cc1S(=O)(=O)N/N=C/c1cnn2ccc(C#N)cc12
Qualitative label: t
//
Given smiles: Cc1ccc([N+](=O)[O-])cc1S(=O)(=O)N(C)/N=C/c1cnn2ccc(Cl)cc12
Qualitative label: t
//
Given smiles: C/C(=N\N(C)S(=O)(=O)c1cc([N+](=O)[O-])ccc1C)c1cnn2ccc(C#N)cc12
Qualitative label: t
//
Given smiles: C/C(=N\N(C)S(=O)(=O)c1cc([N+](=O)[O-])ccc1C)c1cnn2ccc(Br)cc12
Qualitative label: f
//
Given smiles: Cc1ccc([N+](=O)[O-])cc1S(=O)(=O)N(C)/N=C/c1cnn2cc(F)c(C#N)cc12
Qualitative label: t
//
Given smiles: CCc1ccn2ncc(/C=N/N(C)S(=O)(=O)c3cc([N+](=O)[O-])ccc3C)c2c1
Qualitative label: f
//
Given smiles: C=Cc1ccn2ncc(/C=N/N(C)S(=O)(=O)c3cc([N+](=O)[O-])ccc3C)c2c1
Qualitative label: t
//
Given smiles: CC/C(=N\N(C)S(=O)(=O)c1cc([N+](=O)[O-])ccc1C)c1cnn2ccc(C#N)cc12
Qualitative label: f

Reference for the values: ChEMBL document CHEMBL1926509
